B1: TEKT4 (parent)
chain: SEVEELNMSLTALREKLLEAEQSL

Variants of: B1
TEST_NAME: protein stability index of a GFP-peptide fusion (GPS, HEK-293T) (PSI 1-6); higher = more stable;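 further: lentivirally expressed fusions sorted by FACS into six bins by GFP to DsRed ratio, PSI derived from sequencing read proportions per bin multiplied by bin number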
CONDITION_SUMMARY: c terminus: a fixed tail appended
Classification field: enter t for protein stability index values not below 3, f for values below it.

S9C; f
E19D; t
L6D; t
S1T; f
T11W; f

Would you say V3M shows protein stability index at minimum 3?
f

Decide: is the reported value of protein stability index for E4P equal to or greater than 3?
f

Decide: protein stability index of Q22N >= 3?
f

State whether the measured protein stability index reaches 3, counting equality as reaching it, for S23R
f

Say whether E5K shows protein stability index of 3 or more.
f

Determine whether this variant has protein stability index no lower than 3: V3H
t
